# collection of Ki values tested on Carbonic anhydrase 9 (Homo sapiens)
ENDPOINT_NAME: Ki (nM)

{"COMPOUND": "NS(=O)(=O)c1ccc(NC(=O)NNS(=O)(=O)c2ccc(Cl)cc2)cc1", "ENDPOINT_NAME": "Ki", "MEASUREMENT": 23.1}
{"COMPOUND": "NS(=O)(=O)c1ccc(NC(=O)NNS(=O)(=O)c2ccc([N+](=O)[O-])cc2)cc1", "ENDPOINT_NAME": "Ki", "MEASUREMENT": 20.5}
{"COMPOUND": "NS(=O)(=O)c1ccc(NC(=O)NNS(=O)(=O)c2ccc(F)cc2)cc1", "ENDPOINT_NAME": "Ki", "MEASUREMENT": 25.1}
{"COMPOUND": "COc1ccc(S(=O)(=O)NNC(=O)Nc2ccc(S(N)(=O)=O)cc2)cc1", "ENDPOINT_NAME": "Ki", "MEASUREMENT": 80.4}

Data origin, for the record: ChEMBL document CHEMBL3352640
